The reported measurements were obtained from patent US7166296B2.

System: UEA-1 binding sites on Caco-2 cell membrane preparations
assay procedure: Single tier competition assay: inhibition of biotinylated UEA-1 binding, compound and biotinylated UEA-1 incubated together
Set-up: species or system human
measurement parameters: library MSI 27; read-out: Single Tier Assay IC50
The entries below come with measured pIC50 values attached.
Note on units: pIC50 is unitless, being -log10 of a concentration expressed in mol/L.

compound	pIC50
NC(=O)[C@@H](CCCCNC(=O)c1ccc(O)cc1)NC(=O)[C@@H](CCCCNC(=O)c1ccc(O)cc1)NC(=O)[C@@H](CCCCNC(=O)c1ccc(O)cc1)NC(=O)c1ccc(O)cc1 [Cpd 47]	3.55
COc1cc(C(=O)NCCCCC(NC(C)=O)C(N)=O)cc(OC)c1OC (stereo not drawn) [Cpd 12]	3.18
NC(=O)C(CCCCNC(=O)c1ccc(O)cc1)NC(=O)C(CCCCNC(=O)c1ccc(O)cc1)NC(=O)c1ccc(O)cc1 (stereo not drawn) [Cpd 31]	3.40
CC(=O)NC(CCCCNC(=O)c1cc(O)cc(O)c1)C(=O)NC(CCCCNC(=O)c1cc(O)cc(O)c1)C(N)=O (stereo not drawn) [Cpd 40]	3.37
CCOc1cc(C(=O)NCCCCC(NC(C)=O)C(N)=O)cc(OCC)c1OCC (stereo not drawn) [Cpd 11]	3.23
NC(=O)[C@@H](CCCCNC(=O)c1cc(O)cc(O)c1)NC(=O)[C@@H](CCCCNC(=O)c1cc(O)cc(O)c1)NC(=O)[C@@H](CCCCNC(=O)c1cc(O)cc(O)c1)NC(=O)c1cc(O)cc(O)c1 [Cpd 48]	3.58

Problem: Find the recorded pIC50 belonging to CC(=O)NC(CCCCNC(=O)c1ccc(O)cc1)C(N)=O (stereo not drawn) [Cpd 15] and report it.
Solution: 3.44

Problem: Find the recorded pIC50 belonging to COc1ccc(C(=O)NCCCCC(NC(=O)C(CCCCNC(=O)c2ccc(OC)c(OC)c2)NC(=O)C(CCCCNC(=O)c2ccc(OC)c(OC)c2)NC(C)=O)C(N)=O)cc1OC (stereo not drawn) [Cpd 50] and report it.
Solution: 4.08

Problem: Find the recorded pIC50 belonging to CC(=O)NC(CCCCNC(=O)c1cc(O)c(O)c(O)c1)C(N)=O (stereo not drawn) [Cpd 14] and report it.
Solution: 3.42

Problem: Find the recorded pIC50 belonging to COc1cc(C(=O)NCCCCC(NC(=O)C(CCCCNC(=O)c2cc(OC)c(OC)c(OC)c2)NC(C)=O)C(N)=O)cc(OC)c1OC (stereo not drawn) [Cpd 36] and report it.
Solution: 3.45

Problem: Find the recorded pIC50 belonging to CC(=O)NC(CCCCNC(=O)c1cc(O)c(O)c(O)c1)C(=O)NC(CCCCNC(=O)c1cc(O)c(O)c(O)c1)C(N)=O (stereo not drawn) [Cpd 38] and report it.
Solution: 3.85

Problem: Find the recorded pIC50 belonging to COc1cc(C(=O)O)cc(OC)c1OC [compound 20, 3,4,5-trimethoxybenzoic acid] and report it.
Solution: 3.67

Problem: Find the recorded pIC50 belonging to COc1ccc(C(=O)O)cc1OC [compound 10, 3,4-Dimethoxybenzoic acid] and report it.
Solution: 3.15

Problem: Find the recorded pIC50 belonging to NC(=O)C(CCCCNC(=O)c1ccc(O)cc1)NC(=O)c1ccc(O)cc1 (stereo not drawn) [Cpd 7] and report it.
Solution: 3.19

Problem: Find the recorded pIC50 belonging to NC(=O)C(CCCCNC(=O)c1cc(O)c(O)c(O)c1)NC(=O)c1cc(O)c(O)c(O)c1 (stereo not drawn) [Cpd 6] and report it.
Solution: 4.37

Problem: Find the recorded pIC50 belonging to CCOc1cc(C(=O)NCCCCC(NC(=O)c2cc(OCC)c(OCC)c(OCC)c2)C(=O)NCCCCC(NC(=O)C(CCCCNC(=O)c2cc(OCC)c(OCC)c(OCC)c2)NC(=O)c2cc(OCC)c(OCC)c(OCC)c2)C(N)=O)cc(OCC)c1OCC (stereo not drawn) [Cpd 19] and report it.
Solution: 3.73

Problem: Find the recorded pIC50 belonging to CC(=O)NC(CCCCNC(=O)c1cc(O)c(O)c(O)c1)C(=O)NC(CCCCNC(=O)c1cc(O)c(O)c(O)c1)C(=O)NC(CCCCNC(=O)c1cc(O)c(O)c(O)c1)C(N)=O (stereo not drawn) [Cpd 54] and report it.
Solution: 5.12

Problem: Find the recorded pIC50 belonging to CC(=O)NC(CCCCNC(=O)c1ccc(O)cc1)C(=O)NC(CCCCNC(=O)c1ccc(O)cc1)C(N)=O (stereo not drawn) [Cpd 39] and report it.
Solution: 3.35

Problem: Find the recorded pIC50 belonging to COc1cc(C(=O)NCCCCC(NC(=O)C(CCCCNC(=O)c2cc(OC)c(OC)c(OC)c2)NC(=O)C(CCCCNC(=O)c2cc(OC)c(OC)c(OC)c2)NC(C)=O)C(N)=O)cc(OC)c1OC (stereo not drawn) [Cpd 52] and report it.
Solution: 3.77

Problem: Find the recorded pIC50 belonging to COc1cc(C(=O)NCCCCC(NC(=O)c2cc(OC)c(O)c(OC)c2)C(N)=O)cc(OC)c1O (stereo not drawn) [Cpd 1] and report it.
Solution: 3.31

Problem: Find the recorded pIC50 belonging to CCOc1cc(C(=O)NCCCCC(NC(=O)c2cc(OCC)c(OCC)c(OCC)c2)C(N)=O)cc(OCC)c1OCC (stereo not drawn) [Cpd 3] and report it.
Solution: 3.39

Problem: Find the recorded pIC50 belonging to COc1ccc(C(=O)O)cc1OC [compound 26, 3,4-Dimethoxybenzoic acid] and report it.
Solution: 3.79

Problem: Find the recorded pIC50 belonging to O=C(O)c1ccc(O)cc1 [compound 23, 4-Hydroxybenzoic acid] and report it.
Solution: 3.55

Problem: Find the recorded pIC50 belonging to COc1cc(C(=O)NCCCCC(NC(C)=O)C(N)=O)cc(OC)c1O (stereo not drawn) [Cpd 9] and report it.
Solution: 3.47
